Reported ΔTm at 10 µM values for the following compounds.
- system_under_test: STK17AA (Homo sapiens)
- Construct: purchased in-house DSF kinase panel (SGC-style construct names; the trailing letter is the construct ID)
- Sequence (Q9UEE5 61-321): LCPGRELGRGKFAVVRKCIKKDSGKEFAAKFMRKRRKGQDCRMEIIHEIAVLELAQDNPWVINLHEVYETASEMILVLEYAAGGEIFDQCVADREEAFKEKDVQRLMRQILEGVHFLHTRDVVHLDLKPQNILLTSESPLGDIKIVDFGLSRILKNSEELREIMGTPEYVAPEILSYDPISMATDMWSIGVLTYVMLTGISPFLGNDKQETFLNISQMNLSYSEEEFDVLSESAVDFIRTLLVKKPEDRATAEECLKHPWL
- assay_details: DSF Tm panel
- Format: binding
- run_parameters: 10 μM compound

# smiles_input, result_units, ΔTm at 10 µM
data = [
    ("Cc1cc(Cl)ccc1CNC(=O)Nc1ccc2cc1OCCOCCNc1ccn3ncc-2c3n1", "°C", 0.7),
    ("O=C(NCc1ccccc1Cl)Nc1ccc2cc1OCCOCCNc1ccn3ncc-2c3n1", "°C", 2.3),
    ("O=C(NCc1ccc(Cl)cc1Cl)Nc1ccc2cc1OCCOCCNc1ccn3ncc-2c3n1", "°C", 1.6),
    ("O=C(NCc1ccc(C(F)(F)F)cc1)Nc1ccc2cc1OCCOCCNc1ccn3ncc-2c3n1", "°C", 2.4),
    ("O=C(NCc1ccc(Cl)cc1)Nc1ccc2cc1OCCOCCNc1ccn3ncc-2c3n1", "°C", 2),
    ("O=C(NCc1ccccc1C(F)(F)F)Nc1ccc2cc1OCCOCCNc1ccn3ncc-2c3n1", "°C", 4),
    ("O=C(NCc1cccc(Cl)c1)Nc1ccc2cc1OCCOCCNc1ccn3ncc-2c3n1", "°C", 5.1),
    ("COc1cccc(CNC(=O)Nc2ccc3cc2OCCOCCNc2ccn4ncc-3c4n2)c1", "°C", 5.8),
    ("Cc1ccc(F)cc1CNC(=O)Nc1ccc2cc1OCCOCCNc1ccn3ncc-2c3n1", "°C", 5.2),
    ("O=C(NCc1ccc(Cl)cc1F)Nc1ccc2cc1OCCOCCNc1ccn3ncc-2c3n1", "°C", 2),
]

---

- system_under_test: PLK4A (Homo sapiens)
- Construct: purchased in-house DSF kinase panel (SGC-style construct names; the trailing letter is the construct ID)
- Sequence (O00444 2-275): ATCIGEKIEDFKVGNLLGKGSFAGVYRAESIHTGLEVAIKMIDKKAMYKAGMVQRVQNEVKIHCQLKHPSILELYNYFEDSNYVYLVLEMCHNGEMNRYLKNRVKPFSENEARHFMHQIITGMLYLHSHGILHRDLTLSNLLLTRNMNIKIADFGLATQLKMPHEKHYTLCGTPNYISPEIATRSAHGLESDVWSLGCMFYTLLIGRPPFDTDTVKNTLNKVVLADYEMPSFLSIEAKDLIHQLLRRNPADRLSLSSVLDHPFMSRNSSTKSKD
- assay_details: DSF Tm panel
- Format: binding
- run_parameters: 10 μM compound
ΔTm at 10 µM vs 3 °C: at or above is yes (1), below is no (0).

# smiles_input, qualitative_label
measured = [
    ("O=C(NCc1ccc(Cl)cc1Cl)Nc1ccc2cc1OCCOCCNc1ccn3ncc-2c3n1", "no (0)"),
    ("O=C(NCc1ccccc1C(F)(F)F)Nc1ccc2cc1OCCOCCNc1ccn3ncc-2c3n1", "yes (1)"),
    ("O=C(NCc1ccc(C(F)(F)F)cc1)Nc1ccc2cc1OCCOCCNc1ccn3ncc-2c3n1", "yes (1)"),
    ("Cc1ccc(F)cc1CNC(=O)Nc1ccc2cc1OCCOCCNc1ccn3ncc-2c3n1", "yes (1)"),
    ("O=C(NCc1ccc(Cl)cc1F)Nc1ccc2cc1OCCOCCNc1ccn3ncc-2c3n1", "no (0)"),
    ("O=C(NCc1cccc(Cl)c1)Nc1ccc2cc1OCCOCCNc1ccn3ncc-2c3n1", "yes (1)"),
    ("COc1cc(CNC(=O)Nc2ccc3cc2OCCOCCNc2ccn4ncc-3c4n2)ccc1F", "yes (1)"),
    ("C[C@H](NC(=O)Nc1ccc2cc1OCCOCCNc1ccn3ncc-2c3n1)c1ccccc1", "yes (1)"),
]

---

- system_under_test: CAMK1GA (Homo sapiens, UniProt Q96NX5)
- Construct: purchased in-house DSF kinase panel (SGC-style construct names; the trailing letter is the construct ID)
- Sequence (Q96NX5 18-316): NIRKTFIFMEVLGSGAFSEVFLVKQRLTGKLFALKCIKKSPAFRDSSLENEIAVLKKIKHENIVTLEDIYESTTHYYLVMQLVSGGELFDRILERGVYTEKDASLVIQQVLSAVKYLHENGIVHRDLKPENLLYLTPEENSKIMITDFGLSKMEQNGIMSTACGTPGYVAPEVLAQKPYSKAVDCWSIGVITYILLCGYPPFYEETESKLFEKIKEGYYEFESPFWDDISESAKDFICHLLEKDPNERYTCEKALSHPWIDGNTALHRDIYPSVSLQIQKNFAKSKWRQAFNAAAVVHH
- assay_details: DSF Tm panel
- Type: binding
- run_parameters: 10 μM compound
Threshold 0.9 °C: ΔTm at 10 µM strictly smaller gives condition met, otherwise condition not met.

# smiles_input, qualitative_label
measured = [
    ("Cc1cc(Cl)ccc1CNC(=O)Nc1ccc2cc1OCCOCCNc1ccn3ncc-2c3n1", "condition not met"),
    ("O=C(NCc1ccc(Cl)cc1F)Nc1ccc2cc1OCCOCCNc1ccn3ncc-2c3n1", "condition not met"),
    ("O=C(NCc1cccc(Cl)c1)Nc1ccc2cc1OCCOCCNc1ccn3ncc-2c3n1", "condition met"),
    ("CN1CCN(C(=O)Nc2ccc3cc2OCCOCCNc2ccn4ncc-3c4n2)CC1", "condition met"),
    ("O=C(NCc1ccc(Cl)cc1Cl)Nc1ccc2cc1OCCOCCNc1ccn3ncc-2c3n1", "condition not met"),
    ("O=C(NCc1ccccc1)Nc1ccc2cc1OCCOCCNc1ccn3ncc-2c3n1", "condition met"),
]

---

- system_under_test: MAPK8B (Homo sapiens, UniProt P45983)
- Construct: purchased in-house DSF kinase panel (SGC-style construct names; the trailing letter is the construct ID)
- Sequence (P45983 1-364): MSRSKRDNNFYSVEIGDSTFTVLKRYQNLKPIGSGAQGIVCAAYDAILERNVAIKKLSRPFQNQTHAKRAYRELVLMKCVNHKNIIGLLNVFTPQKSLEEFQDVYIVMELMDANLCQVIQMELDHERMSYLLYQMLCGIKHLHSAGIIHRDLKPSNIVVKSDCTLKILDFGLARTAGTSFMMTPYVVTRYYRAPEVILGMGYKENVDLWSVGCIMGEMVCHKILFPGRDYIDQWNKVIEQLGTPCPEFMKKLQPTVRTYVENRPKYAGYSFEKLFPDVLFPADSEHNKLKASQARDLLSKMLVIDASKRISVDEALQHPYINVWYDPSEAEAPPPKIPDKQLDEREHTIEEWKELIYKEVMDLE
- assay_details: DSF Tm panel
- Format: binding
- run_parameters: 10 μM compound

# smiles_input, ΔTm at 10 µM
data = [
    ("COc1cccc(CNC(=O)Nc2ccc3cc2OCCOCCNc2ccn4ncc-3c4n2)c1", "1.2 °C"),
    ("COc1ccc(CNC(=O)Nc2ccc3cc2OCCOCCNc2ccn4ncc-3c4n2)cc1F", "0.8 °C"),
    ("COc1cc(CNC(=O)Nc2ccc3cc2OCCOCCNc2ccn4ncc-3c4n2)ccc1F", "0.9 °C"),
    ("COc1ccc(CNC(=O)Nc2ccc3cc2OCCOCCNc2ccn4ncc-3c4n2)cc1", "1.1 °C"),
    ("COc1ccccc1CNC(=O)Nc1ccc2cc1OCCOCCNc1ccn3ncc-2c3n1", "1.1 °C"),
    ("O=C(NCc1ccccc1C(F)(F)F)Nc1ccc2cc1OCCOCCNc1ccn3ncc-2c3n1", "0.5 °C"),
    ("C[C@H](NC(=O)Nc1ccc2cc1OCCOCCNc1ccn3ncc-2c3n1)c1ccccc1", "0.9 °C"),
    ("Cc1cc(Br)ccc1CNC(=O)Nc1ccc2cc1OCCOCCNc1ccn3ncc-2c3n1", "0.6 °C"),
    ("O=C(NCc1ccc(C(F)(F)F)cc1)Nc1ccc2cc1OCCOCCNc1ccn3ncc-2c3n1", "0.9 °C"),
    ("Cc1ccc(F)cc1CNC(=O)Nc1ccc2cc1OCCOCCNc1ccn3ncc-2c3n1", "0.5 °C"),
]

---

Measured ΔTm at 10 µM, listed per entry.
- system_under_test: STK38LA (Homo sapiens, UniProt Q9Y2H1)
- Construct: purchased in-house DSF kinase panel (SGC-style construct names; the trailing letter is the construct ID)
- Sequence (Q9Y2H1 90-453): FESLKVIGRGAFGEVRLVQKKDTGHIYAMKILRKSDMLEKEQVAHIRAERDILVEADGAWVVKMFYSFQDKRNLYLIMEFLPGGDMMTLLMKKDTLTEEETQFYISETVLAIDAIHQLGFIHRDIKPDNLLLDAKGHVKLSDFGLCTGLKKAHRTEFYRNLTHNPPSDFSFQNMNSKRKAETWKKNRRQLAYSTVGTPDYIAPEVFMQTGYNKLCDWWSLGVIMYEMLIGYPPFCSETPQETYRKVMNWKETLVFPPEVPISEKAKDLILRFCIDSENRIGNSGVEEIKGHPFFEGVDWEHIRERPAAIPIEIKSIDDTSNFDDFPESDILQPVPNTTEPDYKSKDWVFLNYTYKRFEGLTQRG
- assay_details: DSF Tm panel
- Type: binding
- run_parameters: 10 μM compound

# smiles_input, system_under_test, ΔTm at 10 µM, °C
rows = [
    ("O=C(NCc1ccc(Cl)cc1Cl)Nc1ccc2cc1OCCOCCNc1ccn3ncc-2c3n1", "STK38LA (Homo sapiens, UniProt Q9Y2H1)", 0.7),
    ("O=C(NCc1ccc(Cl)cc1)Nc1ccc2cc1OCCOCCNc1ccn3ncc-2c3n1", "STK38LA (Homo sapiens, UniProt Q9Y2H1)", 0.6),
    ("O=C(NCc1ccc(Cl)cc1F)Nc1ccc2cc1OCCOCCNc1ccn3ncc-2c3n1", "STK38LA (Homo sapiens, UniProt Q9Y2H1)", 1.2),
    ("Cc1cc(Cl)ccc1CNC(=O)Nc1ccc2cc1OCCOCCNc1ccn3ncc-2c3n1", "STK38LA (Homo sapiens, UniProt Q9Y2H1)", 1.7),
]

---

- system_under_test: STK10 (Homo sapiens)
- Construct: purchased in-house DSF kinase panel (SGC-style construct names; the trailing letter is the construct ID)
- Sequence (O94804 18-317 limits assumed): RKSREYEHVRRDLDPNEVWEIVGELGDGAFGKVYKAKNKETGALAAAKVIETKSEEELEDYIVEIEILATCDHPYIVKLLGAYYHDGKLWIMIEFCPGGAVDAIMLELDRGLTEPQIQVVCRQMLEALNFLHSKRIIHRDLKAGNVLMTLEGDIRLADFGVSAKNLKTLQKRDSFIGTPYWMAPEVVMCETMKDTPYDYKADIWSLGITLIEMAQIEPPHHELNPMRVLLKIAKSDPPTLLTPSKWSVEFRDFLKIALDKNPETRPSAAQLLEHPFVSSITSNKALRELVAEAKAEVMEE
- assay_details: DSF Tm panel
- Assay type: binding
- run_parameters: 10 μM compound
Heads up, the class ranges for ΔTm at 10 µM are lowest (below 7 °C), middle (7 °C to below 9 °C), highest (9 °C or more)

# smiles_input, system_under_test, qualitative_label
rows = [
    ("Cc1cc(F)ccc1CNC(=O)Nc1ccc2cc1OCCOCCNc1ccn3ncc-2c3n1", "STK10 (Homo sapiens)", "middle"),
    ("O=C(NCc1ccccc1Cl)Nc1ccc2cc1OCCOCCNc1ccn3ncc-2c3n1", "STK10 (Homo sapiens)", "middle"),
    ("O=C(NCc1cccc(Cl)c1)Nc1ccc2cc1OCCOCCNc1ccn3ncc-2c3n1", "STK10 (Homo sapiens)", "highest"),
    ("Cc1cc(Cl)ccc1CNC(=O)Nc1ccc2cc1OCCOCCNc1ccn3ncc-2c3n1", "STK10 (Homo sapiens)", "highest"),
    ("O=C(NCc1ccc(C(F)(F)F)cc1)Nc1ccc2cc1OCCOCCNc1ccn3ncc-2c3n1", "STK10 (Homo sapiens)", "highest"),
    ("COc1ccc(CNC(=O)Nc2ccc3cc2OCCOCCNc2ccn4ncc-3c4n2)cc1F", "STK10 (Homo sapiens)", "middle"),
    ("COc1cc(CNC(=O)Nc2ccc3cc2OCCOCCNc2ccn4ncc-3c4n2)ccc1F", "STK10 (Homo sapiens)", "lowest"),
    ("COc1ccc(CNC(=O)Nc2ccc3cc2OCCOCCNc2ccn4ncc-3c4n2)cc1", "STK10 (Homo sapiens)", "lowest"),
    ("O=C(NCc1ccccc1C(F)(F)F)Nc1ccc2cc1OCCOCCNc1ccn3ncc-2c3n1", "STK10 (Homo sapiens)", "highest"),
    ("COc1ccccc1CNC(=O)Nc1ccc2cc1OCCOCCNc1ccn3ncc-2c3n1", "STK10 (Homo sapiens)", "middle"),
    ("C[C@H](NC(=O)Nc1ccc2cc1OCCOCCNc1ccn3ncc-2c3n1)c1ccccc1", "STK10 (Homo sapiens)", "lowest"),
    ("O=C(NCc1ccc(Cl)cc1F)Nc1ccc2cc1OCCOCCNc1ccn3ncc-2c3n1", "STK10 (Homo sapiens)", "middle"),
    ("CN1CCN(C(=O)Nc2ccc3cc2OCCOCCNc2ccn4ncc-3c4n2)CC1", "STK10 (Homo sapiens)", "lowest"),
    ("O=C(NCc1ccc(Cl)cc1Cl)Nc1ccc2cc1OCCOCCNc1ccn3ncc-2c3n1", "STK10 (Homo sapiens)", "highest"),
    ("O=C(NCc1ccc(Cl)cc1)Nc1ccc2cc1OCCOCCNc1ccn3ncc-2c3n1", "STK10 (Homo sapiens)", "highest"),
    ("Cc1cc(Br)ccc1CNC(=O)Nc1ccc2cc1OCCOCCNc1ccn3ncc-2c3n1", "STK10 (Homo sapiens)", "middle"),
]

FYI, the data here is from paper PMC12621043.
